measurement-notes: yeast display, Sf9 membrane polyspecificity reagent, FACS + sequencing; frameworks hold sequencing errors
assay-readout: polyreactivity (PSR sort gate)

As a guide, the following entries are already answered.
>  <seq-string>
QVQLVESGGGLVQAGGSLRLSCAASGYTFANNAMGWYRQAPGKERELVAVITWSGDSTYYADSVKGRFTISRDNAKNTVYLQMNSQKAEDTAVYYCAREFSDGLSGKFDYWGQGTQLTVSS

>  <polyreactivity (PSR sort gate)>
low polyreactivity

$$$$
>  <seq-string>
QVHLVESGGGLDQARGSHRLSCAASGYTIPTYAMGWYRHAPGKERELVAAINWSGSRTYYADSVKGRFTISRDNAKNTVYLQMNSVKPEDTAFYYCAAYAYRVGPIRRHDYWGQGTQVTVSS

>  <polyreactivity (PSR sort gate)>
high polyreactivity

$$$$
>  <seq-string>
QVQLQERGGGLVQVGGSKRLSCAASGNIFYNYSMGWYRHAQGKEREFDDTINHGTSINYADSVKGRFTISRDKATNTGYLEMNSLKPEDTAVFYCAADRSWTDNLFYWGQGSQVTVSS

>  <polyreactivity (PSR sort gate)>
low polyreactivity

$$$$
>  <seq-string>
QVQLVESGGGLVQAGGSLRLSCAASGSTFLANAMGWYRQAPGKEWELVATISSGGSTNYADSVKGRFTISRDNAKNTVYLQMNSLKPEDTAVYYCAAEYWYAWQEYGYWGQGTQVTVSS

>  <polyreactivity (PSR sort gate)>
low polyreactivity

$$$$
>  <seq-string>
QVQLGESGGGLVQAGGSLRLSCDASGTSNPYNAMGWYRQAPGKERELVATISTNDGSTYYADSVKGRFTISRDNEKNTVYLQMNSLKPDDTAVYYCASRGFARYWGQRTQVTVSS

>  <polyreactivity (PSR sort gate)>
low polyreactivity

$$$$
>  <seq-string>
QVQLVESGGGLVQAGGSLRLSCAASGNIFTSYAMGWYRQAPGKERELVAAISSGGRTSYADSVKGRFTISRDNAKNTVYLQMNSLKPEDTAVYYCAAYYRRWPREYYYWGQGTQVTVSS

>  <polyreactivity (PSR sort gate)>
high polyreactivity

$$$$

For every listed record, write down its polyreactivity (PSR sort gate).
1. QVHLVESGGGLVQAGGSLRLSCAASGFIFYSNAMGWYRQAPGKERELVAAISSGGGSTRYADSVKGRFTISRDNAKNTVYLQMNSLKPQDTAVYYCAAREGYTKFRSTRYYYWGQGTQVTVSS
2. QVQLVESGGCLVQAGGTLRLSCAASGRTFIVYSMGWYRPAPGKERELVAAITTSVGRTYYADSVKGRFTISRDNAKNTVFLQMISLKPEDTAVYYCADDLLDGYSEYSYWGQGTQVTVSS

[A]
1. high polyreactivity
2. low polyreactivity

* * *

measurement-notes: yeast display, Sf9 membrane polyspecificity reagent, FACS + sequencing; frameworks hold sequencing errors
assay-readout: polyreactivity (PSR sort gate)

>  <seq-string>
QVQLVESGGGLVQAGGSLRLSCAASGSTFHLNAMGWYIQAPGKERELVAAISLSGGSTYYADSVKGRFTISRDHAKNTVYLQMNSLKPEYTAVYYCAAEQWYDNYLEYDYWGQGTEVTVSS

>  <assay-readout>
polyreactivity (PSR sort gate)

>  <data-value>
high polyreactivity

$$$$
>  <seq-string>
QVQLVESGGGLVQAGGSLRLSCAASGSTFKSYAMGWYRQAPGKERELVAAISRSGGRTYYADSVKGRFTISRDNAKNTVYLQMNSLKPEDTAVYYCATGVKREGDYWGQGTQVTVSS

>  <assay-readout>
polyreactivity (PSR sort gate)

>  <data-value>
high polyreactivity

$$$$
>  <seq-string>
QVQLVESGGGLVQAGGSLRLSCAASGSIFYVYAMGWYRQAPGKERELVAAITNYADSVKGRFTISRDNAKNTVYLQMNSLKPEDTAVYYCAADWWRVEMDYWGQGTEVTVSS

>  <assay-readout>
polyreactivity (PSR sort gate)

>  <data-value>
low polyreactivity

$$$$
>  <seq-string>
QVQLVESGGGLVQAGGSLRLSCAASGRIFARNAMGWYRQAPGKERELVATIRVGGGSTYYADSVKGRFTISRDNAKNTVYLQMNSLKPEDTAVYSCAVRQLYSYPGDRRGYYWGQGTQVTVSS

>  <assay-readout>
polyreactivity (PSR sort gate)

>  <data-value>
low polyreactivity

$$$$

For every listed record, write down its polyreactivity (PSR sort gate).
1. QVQLVESGGGLVQAGGSLRLSCAASGGISSSNAMGGYRQAPGKERELVAGINSRGGSTYADSVKGRFTISRDNAKNTVYLQMKSLKPEDTAVYYCAAAPTYKWRRKNYDYWGQGTQVTVSS
2. QVQLVESGGGLVQAGGSLRLSCAASGRTFPINTMGWSRQAPGKEREFVAAITLGGRTYYADSVKGRFTISRDNAKNTVYLQMNSLKPEDTAVYYCAVAQPGYWLYRHFLPGSDYWGQGTQVTVSS

[A]
1: high polyreactivity; 2: high polyreactivity

* * *

measurement-notes: yeast display, Sf9 membrane polyspecificity reagent, FACS + sequencing; frameworks hold sequencing errors
assay-readout: polyreactivity (PSR sort gate)

As a guide, the following entries are already answered.
>  <seq-string>
QVQLVESGGGLVQAGGSLRLSCAASGGIFYDNAMGWYRQARGKEWELVAAINWSGGSTYYADSVKGRFTISRDNAKNTVYLQMNSLKPDDTAVYYCAASRYFYRTYWNFYGMDYSGQGTQVTVSS

>  <data-value>
high polyreactivity

$$$$
>  <seq-string>
QVQLVESGGGLVQAGGSLRLSCAASGYTFSYYAMGWYRQAPGKERELVAAISVRGDSTYYADSVKGRFTISRDYAKNTVYLLMNSLKPEDTAVYYCAARVVRSSYVRYHYWGQGTQVTVSS

>  <data-value>
high polyreactivity

$$$$
>  <seq-string>
QVQLVESGGGLVQAGGSLRLSCAASGRTFRKNAMGWYRQAPGKERELVAAISDTGGSTYYADSVKGRFTISRDNAKNTVYFQMNSLKTEDTAVYYCAATVRYRGFYYWGQGTQVTVSS

>  <data-value>
high polyreactivity

$$$$
>  <seq-string>
QVQLVETGGGLVQAGGSLRLSCAASGLIFVSNAMGWYIQAPGKVRELVAAISKSVGRTYYADSVKGRFTISRDNEKNTVYLQMNSLQPEDTAVYYCAARSRVSPRYDYWGQGTQVTVSS

>  <data-value>
high polyreactivity

$$$$
>  <seq-string>
QVQLVESGGGLVQAGGSLRLICAASGTFDHYAMGWDRQAPGKERELVAAISWSGGSTYYADSVKGRFTISRDNAKNTVYLQMNSLKPEDTAVYYCNAETDGYFESNDFDYWGQGTQVTVSS

>  <data-value>
high polyreactivity

$$$$
>  <seq-string>
QVQLVESGGGLVQAGGSLRLSCAASGINYVRYAMGWYRQAPGKEREFVAAITRNGGRTYYADSVKGRFTISRDNAKNTVYLQMNSLKPEDTAVYYCAAYPAYPGTLEMDYWGQGTQVTVSS

>  <data-value>
high polyreactivity

$$$$
>  <seq-string>
QVQLVESGGGLVQAGGSLRLSCAASVRTFGQNTMGWYIQAPGKEREFVAAIDFNGGSTYYADSVKGRFTISRDNAKNTVYLQMNSLKPEDTAVYYCAADIYFYYYGSYDYWGQGTQVTVSS

>  <data-value>
low polyreactivity

$$$$
>  <seq-string>
QVQLEESGGGLVQAGGSLRLSCAASGSTISENTMGWYRQAPGKERELVDAISFSGGSTYYADSVKGRFTISRDIAKNTVFLQMNSLKPEDTAVYYCRRFSSSPKLALGEYDFWGQGTQVTVSS

>  <data-value>
low polyreactivity

$$$$

Note: attention shifts to another entry.
[Q] Reported polyreactivity (PSR sort gate) for QVQLVESGGGLVQAGGSLRLSCAASGFIFDYYAMGWYRQAPGTEREFVAAITWDGGSTYYADSVKGRFTISRDNAKNTVYLQMNSLKTEDTAVYYCAAETWGEYGYWGQGTQVTVSS : what is it?
[A] low polyreactivity

* * *

measurement-notes: yeast display, Sf9 membrane polyspecificity reagent, FACS + sequencing; frameworks hold sequencing errors
assay-readout: polyreactivity (PSR sort gate)

>  <seq-string>
QVQLVESGGGLVQAGGSLRLSCAASGRIFYSYAMGWYRQAPGKERELVATITNGGSTNYADSVKGRFTMSRDNAKNTVYLQMNSLKPEDTAVYYCAKRSFRYASALVRYPPGYYWGQGTQVTVSS

>  <data-value>
high polyreactivity

$$$$
>  <seq-string>
QVQLVESGGGLFQAGGRLRLSCAPSGSNFVGYVMGWYRQAPGKERELVARIRWGGGRTYYADSVKGRFTISRDNAKNTVYLQMNSLKPEDTAVYFCAAETWWRTRIYDYWGQGTQGTVSS

>  <data-value>
high polyreactivity

$$$$
>  <seq-string>
QVQLVESGGGLVQAGGSLRLSCAASGSTLRGNAMGWYRPAPGKERELVAAITGRGTRTYYADSVKGRFTISRDNAKNTVYLQMNSLKPEDTAVYYCAAKGRLYPGWEYYYWGQGTQVTVSS

>  <data-value>
high polyreactivity

$$$$
>  <seq-string>
QVQLVESGGGLVQAGGSLRLSCAASGFIFRFNAMGWYRQAPGKERELVAGITWSGGSTYYADSVKGRFTISRDNAKNTVYLQMNSLKPEDTAVYYCDADNPYLGRKFDYWGQGTQVTVSS

>  <data-value>
high polyreactivity

$$$$
>  <seq-string>
QVQLVESRGGLVQAGGSLRLSCAASGFTFSGNARGWYRQAPGKERECVAAISNRSGRTYYADSVKGRFTISRYNAKNTVYLQMNSLKPEDTAVYYCAAESIYTWGIRGDYWGHGTQVTVSS

>  <data-value>
high polyreactivity

$$$$

For every listed record, write down its polyreactivity (PSR sort gate).
1. QVQLQESGGGLVQAGGSLCLSCAASGTIFFDGDMGWYRQAPGKEREFVAAINPGGSAYYADSVKGRLPLAAITHTVYLQMISLKPEDTAVYYCAAKLFDVYGYYYWGQGTHVTVSS
2. QVQLVESGGGLVQAGGSLRLSCAASGLTFHRYAMGWYRQAPGKERELVADISSGDSTNYADSVKGRFTISRDNAKNTVYLQMTSLKPEDTAVYYCNTDGYIYRYRFDYWGQGTQVTVSS
3. QVQLVESGGGLVHAGGSLRLSCAASGRTFAGNVMGWYIQAPGKEREFVAAISLSGGNTYYADSVKGRFTISRDNAKNTVYLQMNSLKPEDTAVYYCAADYEYSGYGYWGQGTQVTVSS

[A]
1: low polyreactivity; 2: low polyreactivity; 3: high polyreactivity
